- TEST DETAILS: Evaluation of conversion rate to active form in BALB/c mouse plasma (Experimental Example 3)
- Type: in vitro ADME
- CONDITION CONTEXT: BALB/c, mouse, 120 min, 0.2 μmol/L
MEASURED PARAMETER: Production rate (%) of Alvocidib

[A] CCNC(=O)O[C@@H]1CN(C)CC[C@@H]1c1c(O)cc(O)c2c(=O)cc(-c3ccccc3Cl)oc12 [Comparative Example 4, reference compound]
[B] CN1CC[C@H](c2c(O)cc(O)c3c(=O)cc(-c4ccccc4Cl)oc23)[C@H](OC(=O)[C@@H](N)CO)C1 [Comparative Example 9, reference compound]
[C] C[C@H](N)C(=O)O[C@@H]1CN(C)CC[C@@H]1c1c(O)cc(O)c2c(=O)cc(-c3ccccc3Cl)oc12 [Comparative Example 7, reference compound]
# rank by Production rate (%) of Alvocidib, ascending (min first) Provide the ranking by listing each label in its place in the requested order.
A, B, C

###

- TEST DETAILS: Evaluation of conversion rate to active form in buffer solution (Experimental Example 1)
- Type: physicochemical
- CONDITION CONTEXT: pH6.5, 0.5 hr
MEASURED PARAMETER: Residual rate (%)

CC(C)[C@H](N)C(=O)O[C@@H]1CN(C)CC[C@@H]1c1c(O)cc(O)c2c(=O)cc(-c3ccccc3Cl)oc12 [Comparative Example 10, reference compound]    90.9
CCNC(=O)O[C@@H]1CN(C)CC[C@@H]1c1c(O)cc(O)c2c(=O)cc(-c3ccccc3Cl)oc12 [Comparative Example 4, reference compound]    97.6
CNC(=O)Oc1cc(O)c2c(=O)cc(-c3ccccc3Cl)oc2c1[C@H]1CCN(C)C[C@H]1O [Comparative Example 2, reference compound]    0.0
CNCCN(C)C(=O)Oc1cc(O)c2c(=O)cc(-c3ccccc3Cl)oc2c1[C@H]1CCN(C)C[C@H]1O [Comparative Example 14, reference compound]    0.0

###

- TEST DETAILS: Evaluation of conversion rate to active form in buffer solution (Experimental Example 1)
- Format: physicochemical
- CONDITION CONTEXT: pH5.0, 1 hr
MEASURED PARAMETER: Production rate of Alvocidib (%)

Worked cases, answers included:
CNCCN(C)C(=O)Oc1cc(O)c2c(=O)cc(-c3ccccc3Cl)oc2c1[C@H]1CCN(C)C[C@H]1O [Comparative Example 14, reference compound]    31.1
CCOC(=O)O[C@@H]1CN(C)CC[C@@H]1c1c(O)cc(O)c2c(=O)cc(-c3ccccc3Cl)oc12 [Comparative Example 3, reference compound]    1.2
CN1CC[C@H](c2c(OC(=O)N(C)CCN)cc(O)c3c(=O)cc(-c4ccccc4Cl)oc23)[C@H](O)C1 [Comparative Example 13, reference compound]    4.1
CC(C)[C@H](N)C(=O)O[C@@H]1CN(C)CC[C@@H]1c1c(O)cc(O)c2c(=O)cc(-c3ccccc3Cl)oc12 [Comparative Example 10, reference compound]    2.7

[I] CNC(=O)O[C@@H]1CN(C)CC[C@@H]1c1c(O)cc(O)c2c(=O)cc(-c3ccccc3Cl)oc12 [Comparative Example 5, reference compound]
[II] CN1CC[C@H](c2c(O)cc(O)c3c(=O)cc(-c4ccccc4Cl)oc23)[C@H](OC(=O)CN)C1 [Comparative Example 8, reference compound]
Pick the one with the larger Production rate of Alvocidib: I vs II I would appreciate it if you answered with the label of your choice.
II
(II: 19.2%, I: 0.0%)
